- targetOrTestSystem: T1, Cyno plasma sIL-6R (cynomolgus monkey, UniProt A0A2K5WN54 60-396)
- T1 construct: also called cynomolgus sIL-6R
- T1 sequence: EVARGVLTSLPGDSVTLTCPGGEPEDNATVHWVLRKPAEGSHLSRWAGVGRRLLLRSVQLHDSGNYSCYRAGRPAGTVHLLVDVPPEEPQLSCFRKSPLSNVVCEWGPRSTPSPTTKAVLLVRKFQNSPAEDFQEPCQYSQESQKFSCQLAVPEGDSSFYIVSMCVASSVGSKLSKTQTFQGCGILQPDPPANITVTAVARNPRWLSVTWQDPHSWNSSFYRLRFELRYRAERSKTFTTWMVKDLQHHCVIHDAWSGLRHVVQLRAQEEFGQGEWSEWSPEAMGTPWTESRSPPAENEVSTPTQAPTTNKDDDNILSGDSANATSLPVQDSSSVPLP
- protocolText: plasma potency assay, cyno plasma, 2.4 nM IL6; blocked ligand IL-6
So I've got a bunch of binders here, and I need their pIC50 values.
Please express pIC50 as -log10 of the molar concentration.

Task: Recorded pIC50 for PMP21A10 (VHH, not shown: c-myc and (His)6 tags) VHH: EVQLVESGGGLVQPGGSLRLSCAASGSIFKINVMAWYRQAPGKGRELVAGIVTGGSTSYADSVKGRFTISRDNAKNTLYLQMNSLRPEDTAVYYCAFITTESDYDLGRRYWGQGTLVTVSS , please?
Result: 10.10

Task: How about PMP7D6 (VHH, not shown: c-myc and (His)6 tags) VHH: EVQLVESGGGLVQPGGSLRLSCAASGSIFRVNVMAWYRQAPGKGRELVAAVINGGTTTYADSVKGRFTISRDNAKNTLYLQMNSLRPEDTAVYYCAFVTTNSDYDLGRDYWGQGTLVTVSS ?
Result: 9.89

Task: How about PMP20A11 (VHH, also called IL6R20A11; IL6R300; not shown: c-myc and (His)6 tags) VHH: EVQLVESGGGLVQPGGSLRLSCAASGSVFKINVMAWYRQAPGKGRELVAGIISGGSTSYADSVKGRFTISRDNAKNTLYLQMNSLRPEDTAVYYCAFITTESDYDLGRRYWGQGTLVTVSS ?
Result: 10.05

Task: How about IL6R65 (VHH, also called ILR65; parent Nanobody) VHH: EVQLVESGGGLVQPGGSLRLSCAASGSIFKVNAMGWYRQAPGKGRELVAGIISGGSTNYADSVKGRFTISRDNAKNTLYLQMNSLRPEDTAVYYCAFVTTNSDYDLGRDYWGQGTLVTVSS ?
Result: 9.05

Task: How about PMP20F6 (VHH, not shown: c-myc and (His)6 tags) VHH: EVQLVESGGGLVQPGGSLRLSCAASGSVFKINVMAWYRQAPGKGRELVAGIVSGGSTSYADSVKGRFTISRDNAKNTLYLQMNSLRPEDTAVYYCAFITTNSDYDLGRRYWGQGTLVTVSS ?
Result: 10.15

Task: How about PMP20E10 (VHH, not shown: c-myc and (His)6 tags) VHH: EVQLVESGGGLVQPGGSLRLSCAASGSVFKINVMAWYRQAPGKGRELVAGIVSGGSTSYADSVKGRFTISRDNAKNTLYLQMNSLRPEDTAVYYCAFITTESDYDLGRRYWGQGTLVTVSS ?
Result: 10.00
